test.protocol: Pharmacokinetic study of 14A in male CD-1 mice
Type: in vivo
cond: CD-1, mouse, blood, 3 mg/kg IV
parameter.measured: clearance (mL/min/kg)

                                   molecule  recorded_result
0  CN(C)[C@@H]1CCC2=CC3=CC[C@]4(C)[C@@H](c5ccc6ccncc6c5)CC[C@H]4C34CC[C@]2(C1)O4 [14A, α-dimethylamine]               29

###

test.protocol: Pharmacokinetic study of 14A in male CD-1 mice
Type: in vivo
cond: CD-1, mouse, blood, ip, 3 mg/kg, 3 mg/kg IP, read-out: IP bioavailability
parameter.measured: bioavailability (%)

                                   molecule  recorded_result
0  CN(C)[C@@H]1CCC2=CC3=CC[C@]4(C)[C@@H](c5ccc6ccncc6c5)CC[C@H]4C34CC[C@]2(C1)O4 [14A, α-dimethylamine]               95
